Cited source: ChEMBL document CHEMBL3351752

Would you kindly list MIC for each of these compounds?
- Test system: Streptococcus pyogenes
- PROTOCOL SUMMARY: Antimicrobial activity against Streptococcus pyogenes harboring ParE A53S mutant assessed as growth inhibition
- Assay type: functional
Give the value, in units of mg/L, as a plain number.

## Task Given the entry CCNC(=O)Nc1nc2cc(-c3cnc(C4(O)COC4)nc3)cc(-c3ccccn3)c2s1 , report its measured MIC.
## Result 2

## Task Then what about the compound CCNC(=O)Nc1nc2cc(-c3cnc(C(O)CC)nc3)cc(-c3ccccn3)c2s1 (racemic) ?
## Result 1

## Task Another compound to check: CCNC(=O)Nc1nc2cc(-c3cnc(C4(O)CCCC4)nc3)cc(-c3ccccn3)c2s1
## Result 2

## Task Input CCNC(=O)Nc1nc2cc(-c3cnc(N4CCC(CC)(C(=O)O)CC4)nc3)cc(-c3ccccn3)c2s1
## Result 0.5

## Task What would you report for CCNC(=O)Nc1nc2cc(-c3cnc(C(C)O)nc3)cc(-c3ccccn3)c2s1 (centres undefined) ?
## Result 1

## Task Same read-out for CCNC(=O)Nc1nc2cc(-c3cnc(C(C)(C)O)nc3)cc(-c3ccccn3)c2s1 ?
## Result 1

====

- System: Staphylococcus aureus
- PROTOCOL SUMMARY: Antimicrobial activity against Staphylococcus aureus harboring GyrB T173N mutant assessed as growth inhibition
- Format: functional
PARAMETER MEASURED: MIC (µg/mL)
Please respond with the number in µg/mL and leave the unit unwritten.

## Task Suppose we examine the molecule CCNC(=O)Nc1nc2cc(-c3cnc(C(O)CC)nc3)cc(-c3ccccn3)c2s1 (racemic) ; what MIC value has been reported?
## Result 0.25

## Task Now try CCNC(=O)Nc1nc2cc(-c3cnc(C(O)(CC)CC)nc3)cc(-c3ccccn3)c2s1 .
## Result 1

## Task Then this molecule: CCNC(=O)Nc1nc2cc(-c3cnc(C4(O)CCS(=O)(=O)CC4)nc3)cc(-c3ccccn3)c2s1
## Result 1

## Task Item: CCNC(=O)Nc1nc2cc(-c3cnc(C(C)O)nc3)cc(-c3ccccn3)c2s1 (centres undefined)
## Result 0.25

## Task Another molecule to look at: CCNC(=O)Nc1nc2cc(-c3cnc(C(O)C(C)(C)C)nc3)cc(-c3ccccn3)c2s1 (racemic)
## Result 0.25

## Task // query: CCNC(=O)Nc1nc2cc(-c3cnc(C4(O)CCN(C)CC4)nc3)cc(-c3ccccn3)c2s1
## Result 8

## Task What do you have for CCNC(=O)Nc1nc2cc(-c3cnc(C(O)C4CC4)nc3)cc(-c3ccccn3)c2s1 (racemic) ?
## Result 0.25

## Task Likewise for CCNC(=O)Nc1nc2cc(-c3cnc([C@@H](O)[C@H](O)C(F)(F)F)nc3)cc(-c3ccccn3)c2s1 (racemic) ?
## Result 0.25

## Task # repeat for CCNC(=O)Nc1nc2cc(-c3cnc(C4(O)CCCC4)nc3)cc(-c3ccccn3)c2s1
## Result 0.25

## Task Same for CCNC(=O)Nc1nc2cc(-c3cnc(C4(O)CCSCC4)nc3)cc(-c3ccccn3)c2s1
## Result 0.25

## Task Another molecule to look at: CCNC(=O)Nc1nc2cc(-c3cnc(C4(O)CCOCC4)nc3)cc(-c3ccccn3)c2s1
## Result 0.25

## Task Same question, CCNC(=O)Nc1nc2cc(-c3cnc(C4(O)CCOCC4O)nc3)cc(-c3ccccn3)c2s1 (racemic) this time
## Result 4

## Task CCNC(=O)Nc1nc2cc(-c3cnc(N4CCC(CC)(C(=O)O)CC4)nc3)cc(-c3ccccn3)c2s1 ?
## Result 0.25
